- Test system: Tocilizumab
- assay overview: Microtiter plate chromatography of resins, Tocilizumab (bound, yield)
- Type: binding, humanized
- condition details: fraction of injected protein bound to resin
Item-by-item account of Tocilizumab Bound (%)
Give just the number in %; leave the unit off.

Examples with their reported Tocilizumab Bound (%) follow.
NCCCNC(=O)c1cccc(C(=O)Nc2nc3ccccc3s2)c1	93
COc1ccc(NC(=O)c2cc(-c3csc(C)n3)on2)cc1C(=O)NCCOCCOCC(=O)NCCOCCOCC(=O)NCCCN	71
COc1ccc(NC(=O)c2cn3ccsc3n2)cc1C(=O)NCCOCCOCC(=O)NCCCN	80

IN: Request: Tocilizumab Bound (%), test system Tocilizumab, entry NCCCNC(=O)c1cccc(C(=O)Nc2nc(-c3ccccc3)cs2)c1
OUT: 97

IN: Now try COc1ccc(NC(=O)c2cn3ccsc3n2)cc1C(=O)NCCOCCOCC(=O)NCCCCCCN .
OUT: 94

IN: Now try COc1ccc(NC(=O)c2cn3ccsc3n2)cc1C(=O)NCCOCCOCCNC(=O)NCCOCCOCCN .
OUT: 78

The measurements presented in this section are drawn from patent US20130131321A1.
